# Recorded Conditions: buffer; pH 7.4; 200.0 µM
Reported Metric: solubility kinetic

Hey, quick one: what's solubility kinetic for each of these?
1. Cn1cccc1C(=O)OCC(=O)N1CCN(c2ccccc2)CC1
2. O=C(COC(=O)c1ccc([N+](=O)[O-])o1)NCc1ccc(F)cc1
3. COc1ccc(NC(=O)NCc2ccccc2F)cc1OC
4. O=C(NC1CC2CCCC(C1)N2C(=O)Nc1ccccc1F)C1CC1 (centres undefined)
5. C=CCn1c(SCC(=O)NCC2CCCO2)nc2sc(CC)cc2c1=O (centres undefined)
6. COCc1cc(C)nc(SCc2ccc(Br)cc2)c1C#N
7. COc1ccccc1N1CC(C(=O)NCC2COc3ccccc3O2)CC1=O (centres undefined)

[reply]
1. 48.7 µg/mL
2. > 48.3 µg/mL
3. 10.9 µg/mL
4. 16.2 µg/mL
5. > 59 µg/mL
6. < 0.4 µg/mL
7. > 57.4 µg/mL

====

# Recorded Conditions: buffer; pH 7.4; 200.0 µM
Kindly supply the reported log10(solubility kinetic) values for the records listed here.
// units: µg/mL (pre-log); metric: solubility kinetic; scale: log10

Example entries begin here.
Compound | log10(solubility kinetic)
CN1C[C@H](C(=O)N[C@]2(C)O[C@@]3(O)[C@@H]4CCCN4C(=O)[C@H](Cc4ccccc4)N3C2=O)CC2c3cccc4[nH]cc(c34)C[C@H]21.CS(=O)(=O)O (some centres undefined) | 1.80
FC(F)(F)c1nc2cc3nc4ccccc4[nH]c3cc2n1 | 0.96

Hey, quick one: what's log10(solubility kinetic) for each of these?
1. CCC(C)NC(=O)c1cc(-c2ccc3c(c2)OCO3)on1 (centres undefined)
2. CCNc1nc(SC(C)C(=O)Nc2ccccc2)nc(N(C)C)n1 (centres undefined)
3. CSc1oc(-c2cccs2)nc1S(=O)(=O)c1ccccc1
4. O=C(O)c1ccc(S(=O)(=O)N2CCSCC2)cc1
5. O=C(Nc1ccc2ccccc2n1)c1ccccc1Cl
6. COc1ccccc1N1C(=O)CSC1=S

[reply]
[0.48, 0.53, 0.59, 1.63, 0.04, 0.53]

Hey, quick one: what's log10(solubility kinetic) for each of these?
1. O=S(=O)(NCc1cccs1)c1ccc(Br)cc1
2. CC1(c2ccccc2)NC(=O)N(CC(=O)Nc2ccc(N3CCOCC3)cc2)C1=O (centres undefined)
3. CCn1c(CNC(=O)c2ccc(F)cc2)cc2ccccc21
4. CC(=O)c1ccc(NC(=O)COC(=O)CC2CC3CCC2C3)cc1 (centres undefined)
5. CN(C(=O)c1cccc(S(=O)(=O)NCc2ccccc2)c1)C1CCCCC1
6. COc1ccccc1-n1c(SCC(=O)O)nc2sc3c(c2c1=O)CCC3

[reply]
1.06
1.44
0.18
1.57
1.71
1.62

[ask] Report measured log10(solubility kinetic); entry is Cn1cnc(S(=O)(=O)N2CCN(c3ccccc3)CC2)c1
[reply] 1.54

====

# Recorded Conditions: buffer; pH 7.4; 200.0 µM
Kindly supply the reported solubility kinetic values for the records listed here.

Example entries begin here.
Molecule | solubility kinetic
Cc1cccc(C)c1NC(=O)CCCCCC1NC(=O)NC1C (centres undefined) | > 47.6 µg/mL
CCN(CC)CCNc1oc(-c2ccccc2)nc1S(=O)(=O)c1ccccc1 | > 59.9 µg/mL
NC(=O)C1CCN(C(=O)Cc2ccsc2)CC1 | > 37.8 µg/mL

Continue with the next molecule.
[ask] Report measured solubility kinetic; entry is O=C(Nc1ccc2c(c1)CCC2)Nc1ccccc1Cl
[reply] < 0.3 µg/mL

====

# Recorded Conditions: buffer; pH 7.4; 200.0 µM
Kindly supply the reported solubility kinetic values for the records listed here.

Molecule | Result
O=C(Nc1cccc2cccnc12)c1ccc(Cl)cc1Cl | < 0.3 µg/mL

Hey, quick one: what's solubility kinetic for each of these?
1. CCc1ccccc1NC(=O)CN(C)C(=O)COC(=O)c1ccco1
2. CCc1ccccc1N1CC(C(=O)Nc2cc(C)on2)CC1=O (stereo not drawn)
3. CC1CCCCN1C(=S)NC(=O)c1ccccc1 (stereo not drawn)
4. CCC(=NCCc1ccc(OC)c(OC)c1)c1ccccc1O
5. O=C(Nc1ccc(O)cc1)c1ccccc1OCc1ccccc1
6. Br.CCn1c2c(c(=N)c3c1CCC3)CCCC2
7. CCOC(=O)c1c(O)c2ccccc2n(CC)c1=O
8. Cc1ccc(NC(=O)c2ccccc2NC(=O)c2cccs2)cc1

[reply]
1: > 51.7 µg/mL; 2: > 47 µg/mL; 3: > 39.4 µg/mL; 4: > 47 µg/mL; 5: < 0.7 µg/mL; 6: > 44.6 µg/mL; 7: > 39.2 µg/mL; 8: < 0.4 µg/mL

====

# Recorded Conditions: buffer; pH 7.4; 200.0 µM
Kindly supply the reported solubility kinetic values for the records listed here.

Example entries begin here.
Molecule | Result
c1ccc2c(NCCc3c[nH]c4ccccc34)c3ccccc3nc2c1 | > 50.6 µg/mL
CC(=O)c1ccc(NC2=NCCCS2)cc1 | > 35.1 µg/mL

[ask] Report measured solubility kinetic; entry is CN1CCN2c3ccccc3Cc3ccccc3C2C1.Cl (stereo not drawn)
[reply] > 45.1 µg/mL

====

# Recorded Conditions: buffer; pH 7.4; 200.0 µM
Reported Metric: solubility kinetic

Molecule | solubility kinetic
O=C(C(=O)N1CCCCC1)c1c(-c2ccccc2)[nH]c2ccccc12 | > 49.9 µg/mL
O=C(COC(=O)c1ccc(F)c(S(=O)(=O)N2CCOCC2)c1)NCc1ccccc1 | > 65.5 µg/mL

Hey, quick one: what's solubility kinetic for each of these?
1. CN1CCCN(S(=O)(=O)c2cccc(C#N)c2)CC1.Cl
2. CCCOc1ccc(C(=O)NCC(C)(C)N2CCOCC2)cc1
3. CC1=C([N+](=O)[O-])C(c2ccccc2Cl)NC(=O)N1C (centres undefined)
4. OCCN1CCN(CC(O)C(F)(F)F)CC1 (centres undefined)
5. Cc1cc(=O)[nH]c(Nc2cccc(Cl)c2C)n1
6. CN1CCC2(CC1)C(C#N)=C(N)NC(S)=C2C#N
7. C=CCN1C(=O)C(Cc2ccccc2Cl)SC1=Nc1ccc(C(=O)O)cc1 (centres undefined)

[reply]
["> 47.4 µg/mL", "> 48.1 µg/mL", "> 42.3 µg/mL", "> 36.3 µg/mL", "> 37.5 µg/mL", "> 39.2 µg/mL", "> 60.1 µg/mL"]

====

Kindly supply the reported solubility kinetic values for the records listed here.
# Recorded Conditions: buffer; pH 7.4; 200.0 µM

Hey, quick one: what's solubility kinetic for each of these?
1. CCN1CCN(CCC(=O)Nc2ccccc2)CC1
2. Nc1ccc(-c2nc3cc(N)ccc3o2)cc1
3. NC(=O)COC(=O)CC(c1ccccc1)c1ccccc1

[reply]
["> 39.2 µg/mL", "> 33.8 µg/mL", "> 42.5 µg/mL"]

====

# Recorded Conditions: buffer; pH 7.4; 200.0 µM
Kindly supply the reported solubility kinetic values for the records listed here.

Structure String | solubility kinetic
NC(=O)c1ccc(NC(=S)NCc2ccco2)cc1 | > 41.3 µg/mL

Hey, quick one: what's solubility kinetic for each of these?
1. N#C/C(=C/Nc1ccccc1C(=O)O)C(N)=O
2. Cc1ccc(NC(=O)CN(C)CCOc2ccccc2)c([N+](=O)[O-])c1

[reply]
1: > 34.7 µg/mL; 2: < 0.2 µg/mL

====

# Recorded Conditions: buffer; pH 7.4; 200.0 µM
Reported Metric: solubility kinetic

Example entries begin here.
Compound | solubility kinetic
CCOCCCNC(=O)C1CCN(S(=O)(=O)N2CCCC2)CC1 | > 52.1 µg/mL
CSS(=O)(=O)c1cccc2cccnc12 | > 35.9 µg/mL
COc1cccc(NC(=O)COC(=O)Cc2ccc(Cl)cc2)c1 | > 50.1 µg/mL
Cc1noc(C)c1S(=O)(=O)N1CCC(C(N)=O)CC1 | > 43.1 µg/mL
COc1ccc(NS(=O)(=O)c2ccc(C(=O)N3CCC(C)CC3)cc2)cc1 | > 58.3 µg/mL
O=C(CN1C(=O)c2ccccc2C1=O)NC1CCC(O)CC1 (stereo not given) | > 45.3 µg/mL
Cc1cc(C)c(C#N)c(SCc2ccc(C(=O)O)cc2)n1 | > 44.8 µg/mL
CC1CCCN(C(=O)CN2C(=O)C(C)Oc3ccccc32)C1 (stereo not given) | > 45.4 µg/mL
CC1(C)C2SCC(=O)N2CCN1CC(=O)NN (stereo not given) | > 38.8 µg/mL

Continue with the next compound.
[ask] Report measured solubility kinetic; entry is COc1cccc(NC(=O)c2cccc(C(=O)Nc3cccc(OC)c3)c2)c1
[reply] < 0.4 µg/mL

====

# Recorded Conditions: buffer; pH 7.4; 200.0 µM
Param threshold (40 µg/mL) applies to solubility kinetic; output y when value >= threshold, n when value < threshold.

These solved cases illustrate the format of a correct answer.
Compound | Label Class
CCOc1ccccc1NC(=O)CCCc1ccc(OC)c(C)c1 | n
Cn1cnc(NCc2ccccc2)c1[N+](=O)[O-] | n
O=C(NCC(c1ccco1)N1CCOCC1)c1c(F)cccc1F (centres undefined) | y

[ask] Assess whether reported solubility kinetic for COc1ccc2c(c1)CCCC21NC(=O)N(CC(=O)NCc2cccs2)C1=O (centres undefined) sits at 40 µg/mL or higher.
[reply] y

[ask] Assess whether reported solubility kinetic for C=CCn1c(=O)c(C(=O)Nc2cc(C)ccn2)c(O)c2ccccc21 sits at 40 µg/mL or higher.
[reply] n

[ask] Assess whether reported solubility kinetic for Cc1ccc(-c2csc(N=C(N)N)n2)c(C)c1 sits at 40 µg/mL or higher.
[reply] n

The measurements presented in this section are drawn from PubChem BioAssay AID1996.
